METHOD_SUMMARY: Snapshot IV PK in CD1 mice
Assay type: in vivo
RUN_PARAMETERS: CD1, plasma, mouse, 3.0 mg/kg
RESULT_TYPE: Cmax (ng/mL)

# COMPOUND, RESULT_TYPE, EXPERIMENTAL_RESULT
rows = [
    ("Cl.NC(=O)c1cnc(N[C@@H]2CCCC[C@@H]2N)nc1Nc1cccc(-n2nccn2)c1 [UNC10302682A, P505-15 (PRT06207 HCl)]", "Cmax", 595),
    ("CC(=O)N1CCC(NC(=O)NC23CC4CC(CC(C4)C2)C3)CC1 [UNC10302683A, AR9281]", "Cmax", 1830),
    ("CCC(=O)N1CCC(NC(=O)Nc2ccc(OC(F)(F)F)cc2)CC1 [UNC10302681A, TPPU]", "Cmax", 2140),
    ("CNc1nc(C)nc(N[C@H]2CCC[C@@H](C(=O)NCc3ccc(C#N)cc3C(F)(F)F)C2)n1 [UNC10302679A, GSK2256294A]", "Cmax", 4010),
    ("O=c1oc2ccccc2cc1-c1cn2cc(Cc3ccc(F)cc3)sc2n1 [UNC10302680A, iMDK]", "Cmax", 1570),
]

---

Quick reference: Inhibition 3 of the listed items.
TGT: cloned human or rodent CNS receptors, channels, and transporters (PDSP panel) (Homo sapiens, UniProt P18089)
Construct: expressed in transfected cells
Sequence (P18089 whole entry): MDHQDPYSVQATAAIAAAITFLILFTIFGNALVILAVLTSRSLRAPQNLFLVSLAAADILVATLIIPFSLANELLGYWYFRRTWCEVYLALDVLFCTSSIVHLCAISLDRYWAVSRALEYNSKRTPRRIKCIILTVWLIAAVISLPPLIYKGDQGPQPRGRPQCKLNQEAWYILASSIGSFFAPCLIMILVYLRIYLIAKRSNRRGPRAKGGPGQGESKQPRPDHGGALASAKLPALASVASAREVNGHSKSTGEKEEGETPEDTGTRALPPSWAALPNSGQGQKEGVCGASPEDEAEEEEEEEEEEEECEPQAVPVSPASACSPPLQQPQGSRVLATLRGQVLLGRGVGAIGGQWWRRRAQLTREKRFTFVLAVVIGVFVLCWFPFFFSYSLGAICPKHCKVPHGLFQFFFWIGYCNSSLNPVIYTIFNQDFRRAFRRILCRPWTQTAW
METHOD_SUMMARY: PDSP GPCR panel primary binding assays at 10 μM
RUN_PARAMETERS: Alpha2B; primary assay, replicate 3

# MOLECULE, Inhibition 3
data = [
    ("CC(=O)N1CCC(NC(=O)NC23CC4CC(CC(C4)C2)C3)CC1 [UNC10302683A, AR9281]", "26.1%"),
    ("CCC(=O)N1CCC(NC(=O)Nc2ccc(OC(F)(F)F)cc2)CC1 [UNC10302681A, TPPU]", "5.54%"),
    ("CNc1nc(C)nc(N[C@H]2CCC[C@@H](C(=O)NCc3ccc(C#N)cc3C(F)(F)F)C2)n1 [UNC10302679A, GSK2256294A]", "0.5%"),
    ("O=C(NC1CC1)C(=O)C(Cc1ccccc1)NC(=O)[C@H]1CCC(=O)N1Cc1ccccc1 (stereo partly shown) [UNC10302676A, ABT-957 (Alicapistat)]", "-9.53%"),
]

---

TGT: cloned human or rodent CNS receptors, channels, and transporters (PDSP panel) (Homo sapiens, UniProt P21728)
Construct: expressed in transfected cells
Sequence (P21728 whole entry): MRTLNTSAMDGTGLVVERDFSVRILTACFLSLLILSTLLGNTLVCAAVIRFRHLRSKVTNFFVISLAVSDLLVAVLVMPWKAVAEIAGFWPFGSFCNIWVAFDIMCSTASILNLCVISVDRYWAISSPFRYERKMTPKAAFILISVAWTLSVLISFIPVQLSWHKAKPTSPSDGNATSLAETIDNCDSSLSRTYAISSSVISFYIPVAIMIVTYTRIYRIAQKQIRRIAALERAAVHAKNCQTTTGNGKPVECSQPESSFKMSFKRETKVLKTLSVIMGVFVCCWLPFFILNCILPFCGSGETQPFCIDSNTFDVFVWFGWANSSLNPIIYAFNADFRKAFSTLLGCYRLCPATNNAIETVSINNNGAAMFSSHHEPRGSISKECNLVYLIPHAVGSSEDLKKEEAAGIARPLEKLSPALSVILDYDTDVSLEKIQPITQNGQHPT
METHOD_SUMMARY: PDSP GPCR panel primary binding assays at 10 μM
RUN_PARAMETERS: Receptor D1; primary assay, 10 μM

# MOLECULE, Inhibition 2
rows = [
    ("CCCCNc1ncc2c(-c3ccc(CN4CCN(C)CC4)cc3)cn([C@H]3CC[C@H](O)CC3)c2n1 [UNC2025C, UNC2025]", "-8.82%"),
    ("c1cn2cc(-c3ccc4cn[nH]c4c3)nc(Nc3ccc(N4CCOCC4)cc3)c2n1 [UNC10302678A, Entospletinib (GS-9973)]", "-3%"),
    ("Cl.NC(=O)c1cnc(N[C@@H]2CCCC[C@@H]2N)nc1Nc1cccc(-n2nccn2)c1 [UNC10302682A, P505-15 (PRT06207 HCl)]", "11.25%"),
    ("O=c1oc2ccccc2cc1-c1cn2cc(Cc3ccc(F)cc3)sc2n1 [UNC10302680A, iMDK]", "9.31%"),
]

Sourced from paper PMC9005681
